# TARGET OF ASSAY: T1, human PD-L1, full-length, on CHO cells (human, UniProt Q9NZQ7 19-290)
# T1 construct: also called huPD-L1; CD274
# T1 sequence (Q9NZQ7 19-290): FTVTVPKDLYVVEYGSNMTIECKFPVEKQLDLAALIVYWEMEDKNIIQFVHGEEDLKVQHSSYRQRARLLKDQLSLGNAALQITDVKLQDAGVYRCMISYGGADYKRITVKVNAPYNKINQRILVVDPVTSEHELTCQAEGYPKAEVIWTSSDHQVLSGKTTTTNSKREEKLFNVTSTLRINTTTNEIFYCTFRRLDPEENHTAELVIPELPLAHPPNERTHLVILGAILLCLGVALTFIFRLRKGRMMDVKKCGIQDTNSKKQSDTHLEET
# ASSAY OVERVIEW: flow cytometry, CHO cells stably expressing PD-L1
This listing pairs binders with measured MFI at 33.3 nM.
Please state the figure in MFI; there is no need to write the unit.

Previously resolved entries follow.
>  <BINDER>
variant CD80 IgV-Fc D46V/M47L/L85Q (Fc fusion, not shown: small tags and cut ends; a dimerising Fc or GST) VIHVTKEVKEVATLSCGHNVSVEELAQTRIYWQKEKKMVLTMMSGVLNIWPEYKNRTIFDITNNLSIVILALRPSDEGTYECVVQKYEKDAFKREHLAEVTLSVKAD

>  <MEASURED QUANTITY>
MFI at 33.3 nM

>  <UNIT ABBREV>
MFI

>  <OBSERVED>
5980

$$$$
>  <BINDER>
variant CD80 IgV-Fc E35D/D46V/M47L/V68M/L85Q (Fc fusion, not shown: small tags and cut ends; a dimerising Fc or GST) VIHVTKEVKEVATLSCGHNVSVEELAQTRIYWQKDKKMVLTMMSGVLNIWPEYKNRTIFDITNNLSIMILALRPSDEGTYECVVQKYEKDAFKREHLAEVTLSVKAD

>  <MEASURED QUANTITY>
MFI at 33.3 nM

>  <UNIT ABBREV>
MFI

>  <OBSERVED>
28400

$$$$
>  <BINDER>
variant CD80 IgV-Fc M47V/N48K (Fc fusion, not shown: small tags and cut ends; a dimerising Fc or GST) VIHVTKEVKEVATLSCGHNVSVEELAQTRIYWQKEKKMVLTMMSGDVKIWPEYKNRTIFDITNNLSIVILALRPSDEGTYECVVLKYEKDAFKREHLAEVTLSVKAD

>  <MEASURED QUANTITY>
MFI at 33.3 nM

>  <UNIT ABBREV>
MFI

>  <OBSERVED>
3080

$$$$

Which value of MFI at 33.3 nM has been reported for variant CD80 IgV-Fc V68M/L85Q (Fc fusion, not shown: small tags and cut ends; a dimerising Fc or GST) VIHVTKEVKEVATLSCGHNVSVEELAQTRIYWQKEKKMVLTMMSGDMNIWPEYKNRTIFDITNNLSIMILALRPSDEGTYECVVQKYEKDAFKREHLAEVTLSVKAD in the records?
347
